Target desc: STAT3 (Homo sapiens, UniProt P40763)
Construct: endogenous in cells
Sequence (P40763 whole entry): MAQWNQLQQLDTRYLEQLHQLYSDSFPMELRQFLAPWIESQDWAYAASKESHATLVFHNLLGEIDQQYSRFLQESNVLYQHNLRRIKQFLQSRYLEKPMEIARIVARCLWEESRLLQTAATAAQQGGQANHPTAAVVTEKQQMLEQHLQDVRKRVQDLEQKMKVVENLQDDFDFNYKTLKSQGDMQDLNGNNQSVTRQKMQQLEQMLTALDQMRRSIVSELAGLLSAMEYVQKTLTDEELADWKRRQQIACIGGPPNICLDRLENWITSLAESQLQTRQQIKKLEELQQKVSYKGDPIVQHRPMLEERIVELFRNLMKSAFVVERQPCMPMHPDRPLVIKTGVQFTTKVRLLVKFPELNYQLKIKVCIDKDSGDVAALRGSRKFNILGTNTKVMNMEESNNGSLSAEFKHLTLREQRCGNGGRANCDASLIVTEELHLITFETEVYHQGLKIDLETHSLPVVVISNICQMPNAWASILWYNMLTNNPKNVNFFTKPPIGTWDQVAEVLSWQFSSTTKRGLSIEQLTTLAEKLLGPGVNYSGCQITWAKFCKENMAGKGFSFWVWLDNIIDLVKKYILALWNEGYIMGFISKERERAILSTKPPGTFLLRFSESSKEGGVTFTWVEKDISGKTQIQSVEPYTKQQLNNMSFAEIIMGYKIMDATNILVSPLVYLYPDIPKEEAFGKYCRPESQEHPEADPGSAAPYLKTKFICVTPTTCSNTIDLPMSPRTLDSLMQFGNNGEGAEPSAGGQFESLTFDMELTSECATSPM
Protocol summary: Cell-based STAT3 DNA-binding ELISA
Measurement parameters: HeLa, 24 h dose response

Compound	Reading unit	EC50
O=C(Nc1ccc([N+](=O)[O-])cc1Cl)c1cc(Cl)c(-c2ccco2)cc1O	µM	0.059
O=C(Nc1ccc([N+](=O)[O-])cc1Cl)c1cc(Cl)ccc1O [niclosamide, reference compound]	µM	0.179
CN(C(=O)c1cc(Cl)ccc1O)c1ccc([N+](=O)[O-])cc1Cl	µM	0.239

* * *

Test system: HeLa cells
Protocol summary: MTT cell viability assay
Assay type: cell-based
Measurement parameters: Homo sapiens, 24 h
pEC50: −log10 of the molar value.

Molecule	pEC50
O=C(Nc1ccc([N+](=O)[O-])cc1Cl)c1cc(Cl)c(-c2ccco2)cc1O	6.50
O=C(Nc1ccc([N+](=O)[O-])cc1Cl)c1cc(Cl)ccc1O [niclosamide, reference compound]	6.00
CN(C(=O)c1cc(Cl)ccc1O)c1ccc([N+](=O)[O-])cc1Cl	5.94

From: patent US11952353B2
